PBM binding z-score values by entry
Tested on: PXR homodimer (NR concentration 270 nM)
Experimental protocol: PBM binding z-score (relative to random genomic background probes); higher = stronger binding; sequences stand for … in GC…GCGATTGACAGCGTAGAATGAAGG
Could you keep your reply to the number by itself?

| Seq string | PBM binding z-score |
| --- | --- |
| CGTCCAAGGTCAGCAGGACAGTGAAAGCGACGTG | 0.176 |
| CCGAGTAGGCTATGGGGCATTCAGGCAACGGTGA | -0.647 |
| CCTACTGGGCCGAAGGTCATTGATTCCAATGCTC | 0.597 |
| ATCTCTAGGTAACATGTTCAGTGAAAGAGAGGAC | -0.0105 |
| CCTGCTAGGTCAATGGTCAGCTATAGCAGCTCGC | -0.745 |

Please look at the following sequence next.
Tested system PXR homodimer (NR concentration 270 nM); PBM binding z-score recorded for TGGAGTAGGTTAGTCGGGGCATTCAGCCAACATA was 0.996

----------
System: LXRa:RXRa (NR concentration 270 nM, RXRa partner concentration 90 nM)
Experimental protocol: PBM binding z-score (relative to random genomic background probes); higher = stronger binding; sequences stand for … in GC…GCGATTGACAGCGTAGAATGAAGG
Output label 1 for PBM binding z-score not less than 0.9; output label 0 otherwise.

Consider the following illustrative entries.
| Seq string | Class name |
| --- | --- |
| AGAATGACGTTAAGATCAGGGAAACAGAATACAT | label 0 |
| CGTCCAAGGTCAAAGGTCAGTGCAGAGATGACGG | label 1 |
| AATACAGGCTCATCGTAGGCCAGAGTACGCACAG | label 0 |
| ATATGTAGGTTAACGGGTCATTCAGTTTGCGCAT | label 1 |
| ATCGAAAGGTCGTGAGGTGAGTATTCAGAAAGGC | label 1 |
| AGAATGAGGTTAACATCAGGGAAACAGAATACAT | label 1 |
| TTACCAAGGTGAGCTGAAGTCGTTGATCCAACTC | label 0 |
| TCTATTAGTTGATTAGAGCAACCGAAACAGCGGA | label 0 |

stdin: # bool: PBM binding z-score of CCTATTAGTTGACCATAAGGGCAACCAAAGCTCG >= 0.9
stdout: label 0

stdin: Quick check: does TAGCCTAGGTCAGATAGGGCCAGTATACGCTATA have PBM binding z-score greater than or equal to 0.9?
stdout: label 1

stdin: Please indicate if the recorded PBM binding z-score for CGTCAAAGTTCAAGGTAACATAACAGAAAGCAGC meets or exceeds 0.9.
stdout: label 1

stdin: Form field: PBM binding z-score at least 0.9? Entry: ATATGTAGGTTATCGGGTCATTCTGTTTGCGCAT
stdout: label 1

stdin: Does the sequence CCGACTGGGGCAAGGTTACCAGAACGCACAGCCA have recorded PBM binding z-score that is 0.9 or more?
stdout: label 0

stdin: Does PBM binding z-score meet or surpass 0.9 for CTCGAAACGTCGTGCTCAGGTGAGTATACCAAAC ?
stdout: label 0

stdin: Determine whether measured PBM binding z-score meets or exceeds 0.9 for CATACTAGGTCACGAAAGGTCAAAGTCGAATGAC
stdout: label 1

stdin: Assess whether reported PBM binding z-score for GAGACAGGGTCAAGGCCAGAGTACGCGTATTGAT sits at 0.9 or higher.
stdout: label 1

stdin: Would you say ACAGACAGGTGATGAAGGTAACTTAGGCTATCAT shows PBM binding z-score at minimum 0.9?
stdout: label 0

stdin: # check: PBM binding z-score of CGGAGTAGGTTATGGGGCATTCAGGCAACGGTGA is greater than or equal to 0.9
stdout: label 0

stdin: Would you say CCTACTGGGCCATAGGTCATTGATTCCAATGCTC shows PBM binding z-score at minimum 0.9?
stdout: label 1
